Numbers sourced from patent US7220822.

- test system: CD80-Ig (extracellular domain of CD80 fused with the constant region of mouse IgG1 heavy chain) (mouse)
- assay procedure: SPR competitive kinetics, peptide 0.125 × 10^5 nM with 3.2 µM CD28-Ig (competitor) over captured CD80-Ig
measurement type: Kd (nM)

[
  {
    "binder": "Ac-KIEFMYPPPYLDNERSNGTI-NH2 [EL-CD28 (end-blocked L CD28 peptide mimetic)]",
    "endpoint value": 1380
  }
]
